# Test system: OVCAR-3 ovarian
# MEASUREMENT DESCRIPTION: NCI-60 one-dose screen, 48 h
# EXPERIMENTAL CONDITIONS: 10 µM unless noted
Compounds without any hit were thinned out: in the full panel of roughly 83,000, 20% have a hit. Activity calls are given as the source filed them. How the source made its calls: active means growth percent below 10; inactive means the rest.
Please answer using one outcome listed in true (active), false (inactive)

(Q) Please let me know the test result on file for "CCOC(=O)c1c[nH]n2c(=S)ncnc12" .
(A) false

(Q) # repeat for "Cn1cc(-c2noc(-c3cn(C)c4ncc(Br)cc34)n2)c2cc(Cl)ccc21"
(A) false

(Q) Moving on to C/C=C/C1OC23CCCCC2C(C#N)(C(=N)O3)C1(C#N)C#N (stereo not drawn)
(A) false

(Q) Input "O=C(Nc1cccc2cccnc12)c1cc(C(=O)c2ccc(Cl)cc2)n2ccc(-c3ccncc3)cc12"
(A) false

(Q) Would you kindly repeat that for "Oc1cc(Nc2ccnc3cc(Cl)ccc23)c2ncccc2c1" ?
(A) false

(Q) "COCCCNc1nc(NC(=O)c2cc(Br)cc(C(F)(F)F)c2)cc(-c2cccnc2)n1" ?
(A) false

(Q) Cool, now "Nc1nc(Nc2ccccc2)c2ncn(Cc3cc4c(cc3Br)OCO4)c2n1"
(A) true

(Q) "CCN(CC)c1ccc(/C=C/c2ccc3cc(C)ccc3[n+]2CC)cc1" , same question.
(A) false

(Q) Similarly, "CC(C)CCNCC(C)(C)O" ?
(A) false

(Q) And the next one, "CC1(C)CC[C@]2(C(=O)O)CC[C@]3(C)C(=CC[C@@H]4[C@@]5(C)C/C(=C/c6ccco6)C(=O)C(C)(C)[C@@H]5CC[C@]43C)[C@@H]2C1" ?
(A) true

(Q) Proceed to COc1ccc2c(c1)C(C)Cc1c(ncnc1-n1cnc3ccccc31)N2C (stereo not drawn)
(A) true

(Q) Now give it for "CCCCCn1c(C)cc(/C=C\c2ccc3cc(C)ccc3[n+]2C)c1C" too.
(A) true

(Q) Same question, "CC(C)CCSc1nc(N)nc2nc[nH]c12" this time
(A) false

(Q) And what about the compound "CSc1nc(=S)c2nc(SC)n(-c3ccccc3)c2[nH]1" ?
(A) false

(Q) Another compound to check: "CC1=CCc2ccccc21"
(A) false

(Q) Next record, please: COc1cc2c(c(OC)c1)C1c3cc(OC)ccc3NC(=O)N1CC2 (stereo not drawn)
(A) false

(Q) Queued: "CCn1cc(-c2ccnc(NCCNS(=O)(=O)c3ccc(Br)cc3)c2)c(-c2cccc(OC)c2)n1"
(A) false

(Q) Another compound to check: "CCOc1ccc2sc(NS(=O)(=O)c3ccc(N)cc3)nc2c1"
(A) false

(Q) Same thing, different compound: "C=CCCCCCCCCC(=O)OC(C)C"
(A) false

(Q) What about "COc1ccc(C=C2c3ccccc3-c3ccccc32)cc1" ?
(A) false

(Q) Same read-out for "C=C(CC(=O)OC)C(C)=O" ?
(A) false

(Q) Now the compound "CC1=CC[C@@H]2C(C)(C)C(=O)CC[C@@]2(C)[C@@H]1COc1ccc2ccc(=O)oc2c1"
(A) false

(Q) Another compound to look at: "Cc1ccccc1-n1nnc(C(=O)Nc2nc3ccc(F)cc3s2)c1C"
(A) false
